Recorded IC50 values for a group of compounds are listed next.
Target: mouse VISTA (mVISTA) (Mus musculus)
Construct: expressed in transfected cells; host or cells: Human embryonic kidney 293T cells
Assay: Cell-Based Binding High-Content Assay For mVISTA (HC CBA mVISTA)
Conditions: cell-based binding high-content assay; read-out: HC CBA miPrISTA IC50
Description: Cell-Based Binding High-Content Assay For mVISTA Human embryonic kidney 293T cells (293T) expressing mouse VISTA (mVISTA) were used for the assessment of compounds competing with the binding of a biotinylated peptide. […] The plates were washed 3 times in dPBS, sealed, and read on a CellInsight NXT High Content Screening Platform IC903000 (Thermo Scientific). […]
Reported endpoint: IC50

Compound	Reported endpoint	Val
CCCCCCN1CC(=O)N[C@@H](Cc2ccc(O)cc2)C(=O)N[C@@H](CCCC)C(=O)N[C@@H](CC(N)=O)C(=O)N[C@@H](CCCNC(=N)N)C(=O)N[C@@H](CC(C)C)C(=O)N[C@@H](CCCCC)C(=O)N2CCC[C@H]2C(=O)N[C@@H](C(C)C)C(=O)N[C@@H](CC(=O)O)C(=O)N[C@H](C(=O)NCCOCCOCC(=O)N[C@@H](CC(=O)O)C(=O)NCCOCCOCC(=O)NCCCCCCCCCCC(=O)O)CSCC(=O)N[C@@H](Cc2cccc(C)c2)C(=O)N[C@@H](Cc2c[nH]c3ccccc23)C(=O)N[C@@H](CC(=O)O)C1=O (stereo in doubt)	IC50	25.3 nM
CCCCCCN1CC(=O)N[C@@H](Cc2ccc(O)cc2)C(=O)N[C@@H](CCCC)C(=O)N[C@@H](CC(N)=O)C(=O)N[C@@H](CCCNC(=N)N)C(=O)N(C)[C@@H](CCCC)C(=O)N[C@@H](CCCCC)C(=O)N2CCC[C@H]2C(=O)N[C@@H](C(C)C)C(=O)N[C@@H](CC(=O)O)C(=O)N[C@H](C(=O)NCCOCCOCC(=O)N[C@@H](CC(=O)O)C(=O)NCCOCCOCC(=O)NCCCCCCCCCCC(=O)O)CSCC(=O)N[C@@H](Cc2ccc3ccccc3c2)C(=O)N[C@@H](Cc2c[nH]c3ccccc23)C(=O)N[C@@H](CC(=O)O)C1=O (stereo in doubt)	IC50	39.1 nM
CCCCCCN1CC(=O)N[C@@H](Cc2ccc(O)cc2)C(=O)N[C@@H](CCCC)C(=O)N[C@@H](CC(=O)O)C(=O)N[C@@H](CCCNC(=N)N)C(=O)N[C@@H](CC(C)C)C(=O)N[C@@H](CCCCC)C(=O)N2CCC[C@H]2C(=O)N[C@@H](C(C)C)C(=O)N[C@@H](CC(N)=O)C(=O)N[C@H](C(=O)NCCOCCOCC(=O)N[C@@H](CC(=O)O)C(=O)NCCOCCOCC(=O)NCCCCCCCCCCC(=O)O)CSCC(=O)N[C@@H](Cc2ccccc2)C(=O)N[C@@H](Cc2ccc(O)cc2)C(=O)N[C@@H](CC(=O)O)C1=O (stereo in doubt)	IC50	33.1 nM
CCCCCCN1CC(=O)N[C@@H](Cc2ccc(O)cc2)C(=O)N[C@@H](CCCC)C(=O)N[C@@H](CC(N)=O)C(=O)N[C@@H](CCCNC(N)=O)C(=O)N[C@@H](CC(C)C)C(=O)N[C@@H](CCCCC)C(=O)N2CCC[C@H]2C(=O)N[C@@H](C(C)C)C(=O)N[C@@H](CO)C(=O)N[C@H](C(=O)NCCOCCOCC(=O)N[C@@H](CC(=O)O)C(=O)NCCOCCOCC(=O)NCCCCCCCCCCC(=O)O)CSCC(=O)N[C@@H](Cc2ccc3ccccc3c2)C(=O)N[C@@H](Cc2ccc(O)cc2)C(=O)N[C@@H](CC(=O)O)C1=O (stereo in doubt)	IC50	23 nM
CCCCCCN1CC(=O)N[C@@H](Cc2ccc(O)cc2)C(=O)N[C@@H](C(C)C)C(=O)NCC(=O)N[C@@H](CCCNC(=N)N)C(=O)N[C@@H](CC(C)C)C(=O)N[C@@H](CCCCC)C(=O)N2CCC[C@H]2C(=O)N[C@@H](C(C)C)C(=O)N[C@@H](CC(=O)O)C(=O)N[C@H](C(=O)NCCOCCOCC(=O)N[C@@H](CC(=O)O)C(=O)NCCOCCOCC(=O)NCCCCCCCCCCC(=O)O)CSCC(=O)N[C@@H](Cc2ccc3ccccc3c2)C(=O)N[C@@H](Cc2ccc(O)cc2)C(=O)N[C@@H](CC(=O)O)C1=O (stereo in doubt)	IC50	21.6 nM
CCCCCCN1CC(=O)N[C@@H](Cc2ccc(O)cc2)C(=O)N[C@@H](CCCC)C(=O)N[C@@H](CC(N)=O)C(=O)N[C@@H](CCCNC(=N)N)C(=O)N[C@@H](CC(C)C)C(=O)N[C@@H](CCCCC)C(=O)N2CCC[C@H]2C(=O)N[C@@H](C(C)C)C(=O)N[C@@H](CO)C(=O)N[C@H](C(=O)NCCOCCOCC(=O)N[C@@H](CC(=O)O)C(=O)NCCOCCOCC(=O)NCCCCCCCCCCC(=O)O)CSCC(=O)N[C@@H](Cc2ccc3ccccc3c2)C(=O)N[C@@H](Cc2ccc(O)cc2)C(=O)N[C@@H](CC(=O)O)C1=O (stereo in doubt)	IC50	8.6 nM
CCCCCCN1CC(=O)N[C@@H](Cc2ccc(O)cc2)C(=O)N[C@@H](CCCC)C(=O)NCC(=O)N[C@@H](CCCNC(N)=O)C(=O)N[C@@H](CC(C)C)C(=O)N[C@@H](CCCCC)C(=O)N2CCC[C@H]2C(=O)N[C@@H](C(C)C)C(=O)N[C@@H](CC(=O)O)C(=O)N[C@H](C(=O)NCCOCCOCC(=O)N[C@@H](CC(=O)O)C(=O)NCCOCCOCC(=O)NCCCCCCCCCCC(=O)O)CSCC(=O)N[C@@H](Cc2cccc(C)c2)C(=O)N[C@@H](Cc2ccc(O)cc2)C(=O)N[C@@H](CC(=O)O)C1=O (stereo in doubt)	IC50	17.9 nM
CCCCCCN1CC(=O)N[C@@H](Cc2ccc(O)cc2)C(=O)N[C@@H](CCCC)C(=O)N[C@@H](CC(N)=O)C(=O)N[C@@H](CCCNC(N)=O)C(=O)N(C)[C@@H](CCCC)C(=O)N[C@@H](CCCCC)C(=O)N2CCC[C@H]2C(=O)N[C@@H](C(C)C)C(=O)N[C@@H](CO)C(=O)N[C@H](C(=O)NCCOCCOCC(=O)N[C@@H](CC(=O)O)C(=O)NCCOCCOCC(=O)NCCCCCCCCCCC(=O)O)CSCC(=O)N[C@@H](Cc2ccccc2)C(=O)N[C@@H](Cc2c[nH]c3ccccc23)C(=O)N[C@@H](CC(=O)O)C1=O (stereo in doubt)	IC50	18.3 nM

* * *

Target: mouse VISTA (mVISTA) (Mus musculus, UniProt Q9D659)
Construct: expressed in transfected cells; host or cells: Human embryonic kidney 293T cells
Sequence (Q9D659 33-308): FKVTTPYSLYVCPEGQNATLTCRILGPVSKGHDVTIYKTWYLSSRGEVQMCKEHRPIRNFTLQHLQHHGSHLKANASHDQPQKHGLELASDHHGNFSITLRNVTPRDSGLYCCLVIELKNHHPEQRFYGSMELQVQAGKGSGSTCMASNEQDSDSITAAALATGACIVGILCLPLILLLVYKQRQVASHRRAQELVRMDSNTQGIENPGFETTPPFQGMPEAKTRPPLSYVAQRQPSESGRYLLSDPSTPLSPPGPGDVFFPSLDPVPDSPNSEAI
Assay: Cell-Based Binding High-Content Assay For mVISTA (HC CBA mVISTA)
Details: read-out: HC CBA mVISTA IC50
pIC50: −log10 of the molar value. Positions of bridges follow the written chain, without caps; N, C: chain ends. Non-standard residues stand in square brackets, D forms with d. Residues, ends and D or L forms follow the SMILES beside them. Cit = NC(=O)NCCC[C@H](N)C(=O)O; Ahp(2) = CCCCC[C@H](N)C(=O)O; NMeNle = CCCC[C@H](NC)C(=O)O; NHexGly = CCCCCCNCC(=O)O; Nle = CCCC[C@H](N)C(=O)O
Reported pIC50 is given for each of the following compounds.

Compound	pIC50
CCCCCCN1CC(=O)N[C@@H](Cc2ccc(O)cc2)C(=O)N[C@@H](CCCC)C(=O)N[C@@H](CC(N)=O)C(=O)N[C@@H](CCCNC(N)=O)C(=O)N(C)[C@@H](CCCC)C(=O)N[C@@H](CCCCC)C(=O)N2CCC[C@H]2C(=O)N[C@@H](C(C)C)C(=O)N[C@@H](CC(=O)O)C(=O)N[C@H](C(=O)NCC(=O)O)CSCC(=O)N[C@@H](Cc2ccccc2)C(=O)N[C@@H](Cc2c[nH]c3ccccc23)C(=O)N[C@@H](CC(=O)O)C1=O [Example 1387] ({CH2CO}-FWD[NHexGly]Y[Nle]N[Cit][NMeNle][Ahp(2)]PVDCG-OH; thioether N-14)	8.28
CCCCCCN1CC(=O)N[C@@H](Cc2ccc(O)cc2)C(=O)N[C@@H](CCCC)C(=O)N[C@@H](CC(N)=O)C(=O)N[C@@H](CCCNC(=N)N)C(=O)N(C)[C@@H](CCCC)C(=O)N[C@@H](CCCCC)C(=O)N2CCC[C@H]2C(=O)N[C@@H](C(C)C)C(=O)N[C@@H](CC(=O)O)C(=O)N[C@H](C(=O)NCC(=O)O)CSCC(=O)N[C@@H](Cc2ccccc2)C(=O)N[C@@H](Cc2c[nH]c3ccccc23)C(=O)N[C@@H](CC(=O)O)C1=O [Example 1379] ({CH2CO}-FWD[NHexGly]Y[Nle]NR[NMeNle][Ahp(2)]PVDCG-OH; thioether N-14)	8.23
